B1: library; a variant is named by its letters at N, in order (parent)
chain: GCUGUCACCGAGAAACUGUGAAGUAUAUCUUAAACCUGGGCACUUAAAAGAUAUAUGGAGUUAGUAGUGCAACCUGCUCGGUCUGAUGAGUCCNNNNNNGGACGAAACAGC

variants of: B1; assay: normalized RNA/DNA level with ligand (relative to sTRSVctl = 100) (log10 (% of sTRSVctl)); HEK293T; ligand: cyclic di-GMP (c-di-GMP-II aptamer); ligand concentration (+) RNA-Seq: 1 mM; higher = less ribozyme self-cleavage, higher mRNA level; settings: reporter: mCherry (pCS4076), ligand present: yes
measured_quantity: normalized RNA/DNA level with ligand (log10)

[
  {
    "seq_string": "GCUGUCACCGAGAAACUGUGAAGUAUAUCUUAAACCUGGGCACUUAAAAGAUAUAUGGAGUUAGUAGUGCAACCUGCUCGGUCUGAUGAGUCCGAAGCGGGACGAAACAGC [GAAGCG]",
    "measured_number": 1.87
  },
  {
    "seq_string": "GCUGUCACCGAGAAACUGUGAAGUAUAUCUUAAACCUGGGCACUUAAAAGAUAUAUGGAGUUAGUAGUGCAACCUGCUCGGUCUGAUGAGUCCGACACGGGACGAAACAGC [GACACG]",
    "measured_number": 1.82
  },
  {
    "seq_string": "GCUGUCACCGAGAAACUGUGAAGUAUAUCUUAAACCUGGGCACUUAAAAGAUAUAUGGAGUUAGUAGUGCAACCUGCUCGGUCUGAUGAGUCCACGCGCGGACGAAACAGC [ACGCGC]",
    "measured_number": 1.79
  },
  {
    "seq_string": "GCUGUCACCGAGAAACUGUGAAGUAUAUCUUAAACCUGGGCACUUAAAAGAUAUAUGGAGUUAGUAGUGCAACCUGCUCGGUCUGAUGAGUCCCGAUAUGGACGAAACAGC [CGAUAU]",
    "measured_number": 1.62
  },
  {
    "seq_string": "GCUGUCACCGAGAAACUGUGAAGUAUAUCUUAAACCUGGGCACUUAAAAGAUAUAUGGAGUUAGUAGUGCAACCUGCUCGGUCUGAUGAGUCCUUCGUCGGACGAAACAGC [UUCGUC]",
    "measured_number": 1.88
  },
  {
    "seq_string": "GCUGUCACCGAGAAACUGUGAAGUAUAUCUUAAACCUGGGCACUUAAAAGAUAUAUGGAGUUAGUAGUGCAACCUGCUCGGUCUGAUGAGUCCAUCUUUGGACGAAACAGC [AUCUUU]",
    "measured_number": 1.86
  },
  {
    "seq_string": "GCUGUCACCGAGAAACUGUGAAGUAUAUCUUAAACCUGGGCACUUAAAAGAUAUAUGGAGUUAGUAGUGCAACCUGCUCGGUCUGAUGAGUCCGUGCUGGGACGAAACAGC [GUGCUG]",
    "measured_number": 1.86
  },
  {
    "seq_string": "GCUGUCACCGAGAAACUGUGAAGUAUAUCUUAAACCUGGGCACUUAAAAGAUAUAUGGAGUUAGUAGUGCAACCUGCUCGGUCUGAUGAGUCCAGGCCAGGACGAAACAGC [AGGCCA]",
    "measured_number": 1.85
  }
]
